Target: UniProtKB P0AE18
Sequence (P0AE18 whole entry): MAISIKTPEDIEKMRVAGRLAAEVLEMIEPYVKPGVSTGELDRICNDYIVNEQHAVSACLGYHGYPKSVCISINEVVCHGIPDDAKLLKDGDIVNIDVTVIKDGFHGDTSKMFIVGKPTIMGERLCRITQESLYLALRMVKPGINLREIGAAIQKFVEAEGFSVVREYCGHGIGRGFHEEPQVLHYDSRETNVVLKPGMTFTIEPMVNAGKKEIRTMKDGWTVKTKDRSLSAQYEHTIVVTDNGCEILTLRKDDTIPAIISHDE
Several reports have described log10 of IC50 for UniProtKB P0AE18; a selection of those results is presented here.
Please note: log10 values; quantity IC50; unit nM.

Consider the reported log10 of IC50 for these compounds:
{"Compound": "O=C(Nc1nccs1)c1cc([N+](=O)[O-])ccn1", "Property name": "log10 of IC50", "Measured result": 3.65}
{"Compound": "COC(Cc1scnc1C(=O)Nc1nccs1)C(C)C (stereo unspecified)", "Property name": "log10 of IC50", "Measured result": 1.95}
{"Compound": "CC(C)(C)OC(=O)Nc1scnc1C(=O)Nc1nccs1", "Property name": "log10 of IC50", "Measured result": 1.78}
{"Compound": "CC(=O)Oc1ccccc1C(=O)Oc1cccnc1C(=O)Nc1nccs1", "Property name": "log10 of IC50", "Measured result": 3.20}

Please supply log10 of IC50 for each of the following items, keeping them in order.
1. COC(Cc1scnc1C(=O)Nc1nccs1)c1ccccc1F (stereo unspecified)
2. COc1ccc(C(Cc2scnc2C(=O)Nc2nccs2)OC)cc1 (stereo unspecified)
3. CC(C)COC(=O)Nc1cccnc1C(=O)Nc1nccs1
4. COc1cc(C(=O)OCCc2scnc2C(=O)Nc2nccs2)cc(OC)c1OC
5. CO[C@H](Cc1scnc1C(=O)Nc1nccs1)c1ccccc1

Ans:
1.53
1.36
3.28
2.20
1.56

I have 2 compounds here; please give me log10 of IC50 for each one.
1. O=C(Nc1nccs1)c1ncsc1CN1CCCC1
2. CCCCCCCCCCCc1scnc1C(=O)Nc1nccs1

Ans:
1: 1.40; 2: 4.88

Each of the following entries comes with a recorded value; kindly state log10 of IC50 for each.
1. O=CNc1cccnc1C(=O)Nc1nccs1
2. O=C(Nc1scnc1C(=O)Nc1nccs1)c1ccc(F)cc1
3. CC(=O)OCCc1scnc1C(=O)Nc1nccs1
4. O=C(Nc1nccs1)c1ncsc1CCN1CCCCC1
5. CC(=O)Nc1ccnc(C(=O)Nc2nccs2)c1
6. COC(c1ccccc1)c1scnc1C(=O)Nc1nccs1 (stereo unspecified)
7. Fc1ccc2[nH]c(-c3ccccn3)nc2c1
8. O=C(Oc1cccnc1C(=O)Nc1nccs1)c1ccccc1

Ans:
1: 2.52; 2: 2.04; 3: 2.49; 4: 1.65; 5: 3.30; 6: 1.79; 7: 3.18; 8: 3.09

State recorded log10 of IC50 for all listed compounds.
1. COC(Cc1scnc1C(=O)Nc1nccs1)CC(C)C (stereo unspecified)
2. C=CCC(=O)Nc1cccnc1C(=O)Nc1nccs1
3. CC(C)=CC(=O)Oc1cccnc1C(=O)Nc1nccs1
4. Clc1ccc2[nH]c(-c3cscn3)nc2c1
5. O=C(Oc1cccnc1C(=O)Nc1nccs1)c1ccccc1I
6. COCc1scnc1C(=O)Nc1nccs1
7. Oc1cccnc1-c1nc2ccccc2[nH]1

Ans:
1. 1.95
2. 2.11
3. 3.41
4. 3.71
5. 3.11
6. 1.99
7. 2.89

---

Target sequence: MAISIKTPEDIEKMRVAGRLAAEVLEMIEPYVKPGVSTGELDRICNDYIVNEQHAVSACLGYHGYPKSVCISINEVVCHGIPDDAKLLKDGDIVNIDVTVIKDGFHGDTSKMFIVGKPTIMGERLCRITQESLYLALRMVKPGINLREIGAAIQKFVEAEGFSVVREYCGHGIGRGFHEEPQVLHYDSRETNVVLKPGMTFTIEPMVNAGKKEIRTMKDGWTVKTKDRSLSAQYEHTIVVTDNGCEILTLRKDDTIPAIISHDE
The molecules below each have a reported IC50 tested on the protein given by its sequence; the values come from various publications.
With a cut-off of 400 nM, any IC50 strictly below it is called Criterion met; any IC50 meeting it or above is called Criterion not met.

Worked examples follow.
{"Molecule": "O=C(Nc1nccs1)c1ncccc1NC(=O)C(F)(F)F", "Target under test": "the protein given by its sequence", "Group": "Criterion met"}
{"Molecule": "COC(=O)Nc1nc2ccc(C(=O)c3ccccc3)cc2[nH]1", "Target under test": "the protein given by its sequence", "Group": "Criterion not met"}
{"Molecule": "O=C(Nc1nccs1)c1cc(OCc2ccccc2)ccn1", "Target under test": "the protein given by its sequence", "Group": "Criterion not met"}
{"Molecule": "COc1ccccc1C(=O)Oc1cccnc1C(=O)Nc1nccs1", "Target under test": "the protein given by its sequence", "Group": "Criterion not met"}
{"Molecule": "c1ccc2[nH]c(-c3cscn3)nc2c1", "Target under test": "the protein given by its sequence", "Group": "Criterion not met"}

Q: Threshold test, IC50 < 400 nM: `O=C(Nc1nccs1)c1ncccc1NC(=O)C1CCCCC1`
Ans: Criterion not met

Q: Confirm or reject: IC50 of `c1ccc(-c2nc3c[nH]cnc-3n2)nc1` lies strictly below 400 nM
Ans: Criterion met

Q: Does this molecule meet the criterion IC50 < 400 nM? `Nc1cccnc1C(=O)Nc1nccs1`
Ans: Criterion not met

Q: # check: IC50 < 400 nM for `O=C(Oc1cccnc1C(=O)Nc1nccs1)c1cccc(F)c1`
Ans: Criterion not met

Q: Is the reported IC50 for `O=[N+]([O-])c1ccc2[nH]c(-c3ccccn3)nc2c1` strictly below 400 nM?
Ans: Criterion met

Q: Below 400 nM on IC50? Entry `CC(=O)OCC(=O)Nc1scnc1C(=O)Nc1nccs1`
Ans: Criterion met

Q: # check: IC50 < 400 nM for `O=C(Oc1cccnc1C(=O)Nc1nccs1)c1ccccc1[N+](=O)[O-]`
Ans: Criterion not met

Q: Would you kindly verify if IC50 of `CN(C)CC(=O)Nc1scnc1C(=O)Nc1nccs1` is strictly less than 400 nM?
Ans: Criterion met

Q: hey, is IC50 for `O=C(Oc1cccnc1C(=O)Nc1nccs1)c1ccc(F)c(Br)c1` lower than 400 nM or not?
Ans: Criterion not met

Q: Please let me know if COC(Cc1scnc1C(=O)Nc1nccs1)c1cccc(Cl)c1 (stereo unspecified) shows IC50 below 400 nM.
Ans: Criterion met

Q: Quick check: does `CC(C)=CC(=O)Nc1cccnc1C(=O)Nc1nccs1` have IC50 under 400 nM?
Ans: Criterion met

Q: Below 400 nM on IC50? Entry `O=C(COCc1ccccc1)Nc1scnc1C(=O)Nc1nccs1`
Ans: Criterion met

Q: Just wondering, is IC50 of `Nc1ccc2[nH]c(-c3cscn3)nc2c1` below 400 nM?
Ans: Criterion not met

Q: Please determine if `C=CCC(=O)Nc1scnc1C(=O)Nc1nccs1` is below 400 nM in terms of IC50.
Ans: Criterion met

---

Literature-derived IC50 for Methionine aminopeptidase (Escherichia coli K-12, UniProt P0AE18) follows.
Answers are plain numbers, in nM.

Please report IC50 for every entry that follows.
1. CC(C)(C)c1ccc2nc(-c3ccccn3)[nH]c2c1
2. COC(Cc1scnc1C(=O)Nc1nccs1)c1ccc(F)cc1 (centres undefined)
3. COC(Cc1scnc1C(=O)Nc1nccs1)c1cccc(F)c1 (centres undefined)
4. O=C(Nc1scnc1C(=O)Nc1nccs1)c1ccccc1F
5. O=C(Nc1nccs1)c1ncsc1-c1ccccc1
6. N#Cc1ccc2[nH]c(-c3ccccn3)nc2c1
7. NC(=S)Nc1nc2ccccc2[nH]1

Ans:
2600
57
37
76
210
431
8960

---

Sequence of the target: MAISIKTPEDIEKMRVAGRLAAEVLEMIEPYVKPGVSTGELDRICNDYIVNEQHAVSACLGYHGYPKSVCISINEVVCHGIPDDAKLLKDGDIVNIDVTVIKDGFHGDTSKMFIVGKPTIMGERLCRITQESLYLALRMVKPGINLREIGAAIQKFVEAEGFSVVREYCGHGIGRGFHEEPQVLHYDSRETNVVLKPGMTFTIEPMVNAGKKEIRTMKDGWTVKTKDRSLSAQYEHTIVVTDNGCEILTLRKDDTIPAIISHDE
Published pIC50 for the protein given by its sequence, assembled from different documents, is shown next.
Answers are plain numbers, as −log10 of the molar value.

{"Compound": "CCCC[C@@H](N)[C@H](O)C(=O)N[C@@H](C)C(=O)N[C@@H](CC(C)C)C(=O)OC", "pIC50": 4.64}

Give one value of pIC50 per listed compound.
1. CCOC(Cc1scnc1C(=O)Nc1nccs1)C(C)C (configuration not stated)
2. Clc1ccc2nc(-c3ccccn3)[nH]c2c1
3. O=C(Nc1cccnc1C(=O)Nc1nccs1)c1ccccc1F
4. O=C(COCc1ccccc1)OCCc1scnc1C(=O)Nc1nccs1
5. CC(C)c1scnc1C(=O)Nc1nccs1
6. O=C(Nc1cccnc1C(=O)Nc1nccs1)c1ccc(F)cc1

Ans:
7.55
5.77
6.55
6.89
6.66
5.87

Could I get pIC50 for every one of these entries?
1. O=C(Nc1nccs1)c1ccccn1
2. Nc1ccnc(C(=O)Nc2nccs2)c1
3. COc1ccccc1/C=C/C(=O)Oc1cccnc1C(=O)Nc1nccs1
4. O=C(Nc1nccs1)c1ncccc1OCc1ccccc1
5. c1c[nH]c2nc(-c3cscn3)nc-2c1
6. O=C(Nc1nccs1)c1ncsc1NC(=O)C1CCC1
7. CC(C)=CCC(=O)Nc1cccnc1C(=O)Nc1nccs1

Ans:
[5.30, 5.17, 5.68, 5.85, 7.11, 7.40, 6.62]

I need pIC50 for every entry listed below, if you could help.
1. O=C(CN1CCCCC1)Nc1cccnc1C(=O)Nc1nccs1
2. O=C(Nc1nccs1)c1ncsc1CCc1ccccc1
3. O=C(Nc1nccs1)c1ncsc1NC(=O)C1CCCC1
4. Nc1scnc1C(=O)Nc1nccs1
5. O=C(Nc1scnc1C(=O)Nc1nccs1)c1cccc(Cl)c1

Ans:
1: 7.28; 2: 7.19; 3: 7.62; 4: 5.71; 5: 6.57

For every record below, what is its pIC50?
1. O=C(Nc1nccs1)c1ncsc1Cc1ccccc1
2. COC(Cc1scnc1C(=O)Nc1nccs1)c1ccccc1Cl (configuration not stated)
3. O=C(Oc1cccnc1C(=O)Nc1nccs1)c1ccc(F)cc1
4. C=CC(C)C(=O)Nc1scnc1C(=O)Nc1nccs1 (configuration not stated)
5. O=C(Nc1nccs1)c1ncsc1CN1CCCCC1

Ans:
1. 6.77
2. 6.77
3. 5.96
4. 7.36
5. 8.00

// input: 3 compounds below; output: pIC50 for each
1. O=C(Oc1cccnc1C(=O)Nc1nccs1)c1cccc([N+](=O)[O-])c1
2. c1ccc(-c2nc3ncc[nH]c-3n2)nc1
3. O=C(CN1CCCC1)Nc1scnc1C(=O)Nc1nccs1

Ans:
1: 6.22; 2: 6.62; 3: 6.80

For each of the compounds below, state pIC50.
1. O=C(c1ccccc1)c1ccc2nc(-c3ccccn3)[nH]c2c1
2. CC(C)(C)OC(=O)Nc1cccnc1C(=O)Nc1nccs1

Ans:
1: 6.39; 2: 6.74
